Tested on: LOC_OS05G30820-cb001;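 also: purified Escherichia coli-expressed rice kinase domain construct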
Assay Summary: thermal shift delta Tm vs DMSO control; higher = stronger stabilization (binding)
Run Conditions: 12.5 µM; protein concentration 2 µM

| Structure String | thermal shift delta Tm [°C] |
| --- | --- |
| O=c1nc(N2CCOCC2)oc2c(-c3cccc4c3sc3ccccc34)cccc12 | -0.09 |
| COc1ncc(-c2ccc3nccc(-c4ccnnc4)c3c2)cc1NS(=O)(=O)c1ccc(F)cc1F | 0.47 |
| CC[C@@H](N)CNc1ccnc(-c2cc(-c3cnn(C)c3)ccc2O)n1 | 0.07 |
| Cc1cc([C@@H](C)Nc2ccccc2C(=O)O)c2nc(N3CCOCC3)cc(=O)n2c1 | 0.51 |
| NC1(Cc2ccc(Cl)cc2)CCN(c2ncnc3[nH]ccc23)CC1 | 0.66 |
